Target: specific IκB E3 ubiquitin ligase activity of HeLa extract
Test: cell-based or functional assay
Non-standard residues stand in square brackets, D forms with d. No end group written: not given here. pS = N[C@@H](COP(=O)(O)O)C(=O)O
value type: IC50 of inhibition of pIκBα ubiquitination (in vitro ubiquitination assay in HeLa extract) (µM)

- binder: "CDDRHD[pS]GLD[pS]MKDEE [pp15, doubly phosphorylated IκBα peptide]"
  value reported: 5
- binder: "CKKERLLDDRHD[pS]GLDSMKDEE [ppS32, singly phosphorylated IκBα peptide]"
  value reported: 400

1. CKKERLLDDRHDSGLD[pS]MKDEE [ppS36, singly phosphorylated IκBα peptide]
2. CDDRHD[pS]GLD[pS]M [pp11, doubly phosphorylated IκBα peptide]
3. CD[pS]GLD[pS]M [pp7, doubly phosphorylated IκBα peptide (minimal size peptide tested)]
Q) // smallest IC50 of inhibition of pIκBα ubiquitination (in vitro ubiquitination assay in HeLa extract) at index 0, largest at the end Note for the reader: the ranking is given by listing the labels in the order requested.
A) 2, 3, 1
(2: 5 µM, 3: 10 µM, 1: 400 µM)
